Sourced from ChEMBL document CHEMBL1145498

# target_under_test: Phospholipase A2 (Homo sapiens)
# Sequence (P04054 whole entry): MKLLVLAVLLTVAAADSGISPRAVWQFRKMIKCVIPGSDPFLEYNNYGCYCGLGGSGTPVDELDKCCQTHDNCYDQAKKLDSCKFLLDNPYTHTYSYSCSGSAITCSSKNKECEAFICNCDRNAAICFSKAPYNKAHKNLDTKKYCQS
value_kind: pIC50
Remember, pIC50 is on a log scale: it is -log10 of the molar concentration.

## Input Report pIC50 for `O=c1c(O)c(-c2ccc(O)c(O)c2)oc2cc(O)cc(O)c12` please.
## Output 5.70

* * *

# target_under_test: Lymphokine-activated killer T-cell-originated protein kinase (Homo sapiens) (UniProt Q96KB5)
# Sequence (Q96KB5 whole entry): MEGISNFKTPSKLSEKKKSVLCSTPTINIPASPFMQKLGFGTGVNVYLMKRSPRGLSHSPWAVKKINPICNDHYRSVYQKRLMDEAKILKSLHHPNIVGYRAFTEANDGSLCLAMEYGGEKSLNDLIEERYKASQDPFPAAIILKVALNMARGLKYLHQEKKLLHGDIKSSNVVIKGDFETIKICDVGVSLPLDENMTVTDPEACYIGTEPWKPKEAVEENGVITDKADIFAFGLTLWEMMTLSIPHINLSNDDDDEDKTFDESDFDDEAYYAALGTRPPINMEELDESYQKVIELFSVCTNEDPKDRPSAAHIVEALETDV
value_kind: ΔTm (°C)
Give just the numeric value; °C need not be written.

Consider the following illustrative entries.
{"columns": ["compound", "quantitative_result"],
 "data": [
  ["O=Nc1c(-c2c(O)[nH]c3ccccc23)[nH]c2ccccc12", 0.5],
  ["COc1cc2ncnc(Nc3cccc(O)c3)c2cc1OC", -0.1],
  ["N=C(N)NCCNS(=O)(=O)c1cccc2cnccc12", 0.6]
]}

## Input Report ΔTm for `Nc1nccc(-c2c(-c3ccc(F)cc3)ncn2C2CCNCC2)n1` please.
## Output 0.5

## Input Report ΔTm for `COc1ccc(CNc2nc(N(CCO)CCO)nc3c2ncn3C(C)C)cc1` please.
## Output 0.7

## Input Report ΔTm for `Cn1cc(/C=C2/C(=O)Nc3ccc(S(N)(=O)=O)cc32)c2ccccc21` please.
## Output -1.2

* * *

# target_under_test: Calcium/calmodulin-dependent protein kinase type IV (Homo sapiens, UniProt Q16566)
# Sequence (Q16566 whole entry): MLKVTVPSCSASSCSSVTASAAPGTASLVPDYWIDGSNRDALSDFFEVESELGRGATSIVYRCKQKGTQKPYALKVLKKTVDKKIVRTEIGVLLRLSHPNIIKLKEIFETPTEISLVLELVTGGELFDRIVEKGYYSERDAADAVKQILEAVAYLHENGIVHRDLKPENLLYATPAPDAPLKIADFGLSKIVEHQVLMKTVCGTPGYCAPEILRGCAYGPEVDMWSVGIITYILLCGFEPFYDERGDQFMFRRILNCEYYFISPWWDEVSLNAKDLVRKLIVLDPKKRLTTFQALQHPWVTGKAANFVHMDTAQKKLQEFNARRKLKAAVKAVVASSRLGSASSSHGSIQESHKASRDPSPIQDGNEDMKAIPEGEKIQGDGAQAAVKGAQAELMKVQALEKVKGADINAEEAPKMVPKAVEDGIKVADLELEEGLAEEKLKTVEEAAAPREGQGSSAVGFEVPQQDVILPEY
# test: Inhibition of CaM-K4
value_kind: IC50

## Input Could you share what IC50 was measured for `CC(=O)O.O=C(O)c1ccc2c3c1cccc3c(=O)n1c3ccccc3nc21` , tested on Calcium/calmodulin-dependent protein kinase type IV (Homo sapiens, UniProt Q16566)?
## Output > 26.7 µM

* * *

# target_under_test: Mitogen-activated protein kinase kinase kinase 5 (Homo sapiens)
Label yes (1) when ΔTm is strictly below 0.6 °C; otherwise label no (0).

Take a look at these entries with their results.
{"columns": ["smiles_str", "target_under_test", "answer_label"],
 "data": [
  ["CN(C)CCCn1cc(C2=C(c3c[nH]c4ccccc34)C(=O)NC2=O)c2ccccc21", "Mitogen-activated protein kinase kinase kinase 5 (Homo sapiens)", "no (0)"],
  ["COc1ccc(Cl)cc1NC(=O)Nc1cc(C)nc2ccccc12", "Mitogen-activated protein kinase kinase kinase 5 (Homo sapiens)", "no (0)"],
  ["Cc1cc2ncc(-c3ccccc3)nc2cc1C", "Mitogen-activated protein kinase kinase kinase 5 (Homo sapiens)", "yes (1)"],
  ["O=c1cc(N2CCOCC2)oc2c(-c3ccccc3)cccc12", "Mitogen-activated protein kinase kinase kinase 5 (Homo sapiens)", "yes (1)"],
  ["Brc1c(Br)c(Br)c2[nH]nnc2c1Br", "Mitogen-activated protein kinase kinase kinase 5 (Homo sapiens)", "no (0)"]
]}

## Input Threshold test, ΔTm < 0.6 °C: `COc1cc2c(cc1OC)-c1n[nH]c(Nc3cccc(F)c3)c1C2`
## Output no (0)

## Input Threshold test, ΔTm < 0.6 °C: `C[C@@H]1C[C@H]2O[C@@H]2/C=C\C=C\C(=O)Cc2c(Cl)c(O)cc(O)c2C(=O)O1`
## Output yes (1)
